These measurements were taken from PubChem BioAssay (NCI).

- Test system: A498 renal
- TEST DESCRIPTION: NCI-60 one-dose screen, 48 h
- MEASUREMENT CONDITIONS: 10 µM unless noted
This is part of a sample that, as a whole, favours compounds with a hit. Of some 83,000 tested, about 20% had one in any assay. Calls of active or inactive are those of the source. The calls were made as follows: active = growth percent below 10; inactive = the rest.
Outcomes: active, inactive

COc1ccc(C2C(N)=NNC2c2cccc(O)c2)cc1 (stereo unspecified) : inactive
CCN(CC)CCNC(=O)c1cn2ncnc(Oc3ccc(NC(=O)Nc4ccc(Cl)c(C(F)(F)F)c4)cc3)c2c1C : active
c1ccc2c(c1)Nc1ccncc1S2 : inactive
CCOC(=O)C1=C(N)Oc2c(sc3c(C)cccc23)C1c1ccc(F)cc1 (stereo unspecified) : active
O=C1NC(=O)C(c2ccccc2)(c2ccccc2)N1Cc1cn(-c2c3ccccc3nc3ccccc23)nn1 : inactive
Oc1ccc(CCl)c2cccnc12 : inactive
CCCCn1c(-c2ccc(-c3nc(-c4ccc(Cl)cc4)no3)cc2)nc(-c2ccccc2)c1-c1ccccc1 : inactive
COc1cc(Nc2nc(NCCN)nc3cc[nH]c(=O)c23)cc(OC)c1 : inactive
COc1ccc(N2C(=O)C(Oc3ccccc3)C2c2ccc(C)cc2)cc1 (stereo unspecified) : inactive
C=C1C(=O)O[C@H]2[C@H]1CC/C(COC(=O)C(C)c1ccc(CC(C)C)cc1)=C\CC[C@@]1(C)O[C@@H]21 (stereo partly specified) : inactive
COc1ccc(-c2nc3sc(-c4ccc(Cl)cc4)cn3n2)cc1 : active
COC1=C(C)C(=O)c2c(c(CCCl)c3n2CCC3OC(C)=O)C1=O (stereo unspecified) : active
Cn1cc(-c2cc3ncnc(Nc4ccc(CC(=O)Nc5cc(C(C)(C)C)on5)cc4)c3s2)cn1 : active
O=c1cc(SCc2ccccc2)nc[nH]1 : inactive
O=C1CSC(c2c(Cl)cccc2Cl)N1c1nc(Cl)cc(=O)[nH]1 (stereo unspecified) : inactive
COc1nc2ccccc2cc1-c1nc2c(cnn2-c2ccccc2)c(=O)[nH]1 : inactive
Cc1ccc2nc(NC(=O)CSc3nc(Cl)c(C#N)c(-c4ccccc4)n3)sc2c1 : inactive
CN(C)c1ccc(/C=N\Nc2cc(=O)[nH]c3ccc(Cl)cc23)cc1 : inactive
O=c1c2cc(F)ccc2sc2c(NCCCNCCO)nc3ccccc3c12 : active
CN1CCN(c2ccc(-c3cc4c(Nc5ccc(F)c(Cl)c5)ncnn4c3)cn2)CC1 : inactive
Cc1nc2ccccc2c(/C=C/c2ccccc2)c1C(=O)/C=C/c1ccc(C(F)(F)F)cc1 : active

====

- Tested on: SK-MEL-5 melanoma
- TEST DESCRIPTION: NCI-60 one-dose screen, 48 h
- MEASUREMENT CONDITIONS: 10 µM unless noted
The panel holds about 83,000 compounds, 20% with a hit somewhere; the sample as a whole holds those more often. Calls of active or inactive are those of the source. The calls were made as follows: active = growth percent below 10; inactive = the rest.
Classes used: 1.0 (active), 0.0 (inactive)

COc1cc2cc(Oc3ccc(NC(=O)Nc4ccc(Cl)c(Cl)c4)cc3)c(C)nc2cc1OCCN1CCOCC1 : 0.0
COc1ccc(C2NC(=O)C(C#N)c3c2sc2c(F)cccc32)c(OC)c1 (stereo unspecified) : 0.0
COc1ccc([C@H]2c3cc(OC)c(OC)cc3C=C(C=O)C2CO)cc1OC (stereo partly specified) : 0.0
COc1ccc(CNC(=O)C(=O)[C@H](Cc2ccccc2)NC(=O)c2[nH]c3ccccc3c(=O)c2C)cc1 : 0.0
C=C1CC[C@H](C(C)C)[C@@H]2[C@H]1[C@H]1CC(=C)[C@@H](O)CC[C@@](C)(O)[C@@H]2O1 : 0.0
O=C(CCc1nnc(-c2c(Cl)cccc2Cl)o1)c1nc2ccccc2[nH]1 : 0.0
CCc1cccc2c3c(sc12)C(c1ccc(F)cc1)C(C#N)=C(N)O3 (stereo unspecified) : 0.0
CCC(C)(c1cc(C(C)(C)C)c(O)c(C(C)(C)C)c1)c1cc(C(C)(C)C)c(O)c(C(C)(C)C)c1 : 0.0
COc1ccc(C(=O)C[C@]2(O)C(=O)Nc3c(Cl)ccc(Cl)c32)cc1 : 0.0
O=c1[nH]c2c(ccc3cnccc32)c2c1CCC2 : 1.0
O=C(Cc1ccc(F)c(Cl)c1)Nc1cc(C2(C(F)(F)F)CC2)nn1Cc1ccccc1 : 0.0
Cc1cc2[nH]c(=O)c3c4ncccc4cn3c2cc1C : 0.0
N[C@@H](Cc1ccccc1)[C@@H](O)C(=O)NCc1ccc(F)cc1 : 0.0
COc1ccc(-c2cnc3ccccc3n2)cc1 : 0.0
CN(C(=O)NCc1cccc(F)c1Cl)[C@H](COC(=O)Nc1cc2ccccc2cn1)CC(O)CO (stereo partly specified) : 0.0
Nc1cc2c(cc1Br)-c1cc(Cl)ccc1C2=O : 0.0
CN(C)CC#Cc1ccc2ncc(C#N)c(Nc3ccc(F)c(Cl)c3)c2c1 : 0.0
O=CN(SSN(C=O)C1CCCCC1)C1CCCCC1 : 0.0
COc1ccc(/C=N/Nc2cc(=O)[nH]c3ccc(Cl)cc23)cc1 : 0.0
CCc1cccc2c1S/C(=C/c1ccc(OC)cc1)C2=O : 0.0
CCN1C(=O)N(CC)C2Nn3c(s/c(=C4\C(=O)N(CCC(C)C)c5ccccc54)c3=O)=NC21 (stereo unspecified) : 0.0
COC(=O)[C@H](C)NC(=O)NC(=O)NC(=O)CI : 0.0
CCCSc1nc2ccc(C)cc2cc1/C=[N+](\[O-])c1ccccc1 : 0.0
CCN1C(=O)N(CC)C2Nn3c(s/c(=C\c4ccc([N+](=O)[O-])cc4)c3=O)=NC21 (stereo unspecified) : 0.0
Cc1cc(C)c(-c2c(N)cc(Br)cc2Br)c(N)c1 : 0.0
Cc1cc2nc3ccc(N=Nc4ccc(N(C)C)cc4)cc3n(-c3ccccc3)c-2cc1=N : 1.0
CCCCCCn1c(-c2ccc(C(=O)O/N=C(\N)c3ccc(OC)cc3)cc2)nc(-c2ccccc2)c1-c1ccccc1 : 0.0
CCOC(=O)c1cn2ncnc(Oc3ccc(NC(=O)NCCN4CCN(C)CC4)c(Cl)c3)c2c1C : 0.0
CN1CCN(c2ccc(-c3ccc4ncc(C#N)c(Nc5ccc(F)c(Cl)c5)c4c3)cc2)CC1 : 0.0
Cc1nc2ccccc2c(/C=C/c2ccc(Cl)cc2)c1C(=O)/C=C/c1ccc(C(F)(F)F)cc1 : 1.0
COc1cc2cc(Oc3ccc(NC(=O)Nc4cc(C(F)(F)F)cc(C(F)(F)F)c4)cc3)c(C)nc2cc1OCCN1CCOCC1 : 1.0
O=C(CCCCCCSc1nc(-c2ccccc2)cc(-c2ccccc2)n1)NO : 1.0
O=c1c2cc(F)ccc2sc2c(NCCN3CCOCC3)nc3ccccc3c12 : 0.0
C(=N/Nc1ncnc2nc[nH]c12)/c1ccccn1 : 0.0
CCc1nnc(NC(=O)c2nnn(-c3ccccc3)c2-c2ccco2)s1 : 0.0
C#C[C@]1(O)CC[C@H]2[C@@H]3CC=C4c5sc(Nc6cc(F)ccc6F)nc5CC[C@]4(C)[C@H]3CC[C@@]21C : 0.0
COc1cccc(Cc2nn3cc(-c4ccccc4)nc3s2)c1 : 0.0
COc1ccc(N)c(N)c1 : 0.0
C/C(=N/NC(N)=S)c1sc(Nc2cccc(Cl)c2)nc1C : 0.0
O=C(O)CCC/C=C\C[C@H]1C=CC(=O)/C1=C/C[C@@H](O)CCc1cccc(C(F)(F)F)c1 : 1.0
CC(=O)CC(c1cccs1)c1c(-c2ccccc2)[nH]c2ccccc12 (stereo unspecified) : 0.0

====

- Tested on: EKVX NSCLC
- TEST DESCRIPTION: NCI-60 one-dose screen, 48 h
- MEASUREMENT CONDITIONS: 10 µM unless noted
Compounds without any hit were thinned out: in the full panel of roughly 83,000, 20% have a hit. Activity calls are given as the source filed them. How the source made its calls: active means growth percent below 10; inactive means the rest.
Possible outcomes: TRUE (active), FALSE (inactive)

COc1ccc(-c2cc(-c3cc(OC)c(OC)c(OC)c3)nc(N3CCOCC3)c2C#N)cc1 : FALSE
COc1ccc(C(=O)C(C)C)c2ccccc12 : FALSE
CCCCC1CCCC12NC(=O)NC2=O (stereo unspecified) : FALSE
COc1ccc2nc(NCCCNCCO)c3sc4ccc(F)cc4c(=O)c3c2c1 : FALSE
NC1=C(c2nn[nH]n2)C(c2ccccc2Cl)c2ccc3ccccc3c2O1 (stereo unspecified) : FALSE
C=C1C(=O)O[C@H]2[C@H]1CC/C(COC(=O)CCSSCCC(=O)OC/C1=C/CC[C@@]3(C)O[C@H]3[C@H]3OC(=O)C(=C)[C@@H]3CC1)=C\CC[C@@]1(C)O[C@@H]21 : FALSE
c1cc(NCCc2ccncc2)nc(-n2cnc3ccccc32)c1 : FALSE
COc1ccc(-c2cnc3ccccc3n2)cc1 : FALSE
COc1cccc2c(=O)c3c(sc12)c(N1CCNCC1)nc1ccccc13 : FALSE
Cc1cccc2c3c(sc12)C(c1ccc(Cl)cc1)C(C#N)=C(/N=C/c1ccc(Cl)cc1)O3 (stereo unspecified) : FALSE
CN(C)CCN1CCN(c2ncccc2C2Nc3ccccc3-n3cccc32)CC1 (stereo unspecified) : FALSE
Cc1nc2ccccc2c(/C=C/c2ccccc2)c1C(=O)/C=C/c1ccc(C(F)(F)F)cc1 : TRUE
O=C(Nc1c2ccccc2nc2ccccc12)c1ccccc1CN1C(=O)c2ccccc2C1=O : FALSE
CN1C(=O)CNC(=O)[C@H](NC(=O)c2nc3ccccc3cc2O)CSSC[C@H]1C(=O)NCCCc1nc2ccccc2cc1O : FALSE
c1ccc(Cc2nn3cc(-c4ccccc4)nc3s2)cc1 : FALSE
COc1cc(Nc2cn[nH]c2-c2ccc(Cl)cc2)cc(OC)c1OC : FALSE
CN(C)c1ccc(/C=N\Nc2cc(=O)[nH]c3ccc(Cl)cc23)cc1 : FALSE
OC(COc1ccccc1)CN1CCN(c2ccc(Cl)cc2)CC1 (stereo unspecified) : FALSE
COc1cccc2nc3n(c12)C(c1c(F)cccc1F)SC3 (stereo unspecified) : FALSE
NCCOc1ncccc1/C=C1\c2ccccc2-c2ccc(C(F)F)cc21 : FALSE
CCc1ccccc1-n1c(N)c(C#N)c(-c2ccc(Cl)cc2)c(C#N)c1=O : FALSE
CCCCNC(=O)Oc1ccc(/C(=C(\C)c2ccc(Cl)cc2)c2ccc(OCCN3CCCCC3)cc2)cc1 : FALSE
COc1cc(C(=O)N2N=C(c3ccc(S(C)(=O)=O)cc3)CC2c2ccco2)cc(OC)c1OC (stereo unspecified) : FALSE
Cc1nn(-c2ccccc2)c(-n2ccnc2)c1/C=N/Nc1nc(-c2ccc(F)cc2)cs1 : FALSE
Cc1ccc(-c2nc3c(c(-c4ccccc4)nn3-c3ccccc3)c(-c3ccc(O)cc3)c2C#N)cc1 : FALSE
Oc1ccc(CCl)c2cccnc12 : FALSE
COc1ccc(OC)c(/C=C2\Oc3cc(OCCN4CCC(Cc5ccccc5)CC4)ccc3C2=O)c1 : FALSE
COc1cccc(-c2nc(-c3ccc(NC(=O)OC(C)C)cc3)[nH]c2-c2ccnc(Br)c2)c1 : FALSE
Cc1cccc(NC2=C(Cl)C(=O)c3nc(C)ccc3C2=O)c1 : FALSE
O=C(Oc1cccc2ccccc12)Oc1cccc2ccccc12 : FALSE
O=C(N/N=C/c1ccc(Cl)cc1)c1ccc(C(F)(F)F)nc1Nc1cccc(C(F)(F)F)c1 : FALSE
COc1ccc(N2C(=O)C(Oc3ccccc3)C2c2ccc(C)cc2)cc1 (stereo unspecified) : FALSE
COc1cc(CNS(=O)(=O)c2ccc(C)cc2)ccc1OCc1cn(-c2ccccc2)nn1 : FALSE
Cc1[nH]c(C(=O)Nc2ccc(C(=O)NCCN)cc2OC(C)C)c(Cl)c1Cl : FALSE
Cc1nc2ccccc2c(/C=C/c2ccc(Cl)cc2)c1C(=O)/C=C/c1ccc(C(F)(F)F)cc1 : TRUE
COc1ccc(OC)c(/C=C/C(=O)N/N=C/c2ccc(Cl)cc2)c1 : FALSE
COc1ccc(CNC(=O)[C@H](O)[C@@H](N)Cc2ccccc2)cc1 : FALSE
CNC(=O)c1[nH]cc(-c2ccccc2)c1-c1cc(OC)c2c(c1OC)OCO2 : FALSE
CCOC(=O)CCN(C(=O)Nc1ccccc1)C1CCCCC1 : FALSE
COc1cccc(Oc2ccccc2NC(=O)CNC(=O)c2cccc3ccccc23)c1 : FALSE
COc1ccc(S(=O)(=O)n2c3ccccc3n3ncc(-c4nnc(C)o4)c23)cc1 : FALSE
